Entries and their OD450 at 10 nM values follow.
- SYSTEM: T1, monkey GPC3-His protein (monkey)
- T1 construct: Bought recombinant protein; also called monkey GPC3 protein
- ASSAY_METHOD_TEXT: ELISA, monkey GPC3-His coated;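 note: Plate-coated antigen at 1 µg/mL, antibody binding 2 h at 37 °C, detected with HRP-labeled secondary antibody and TMB, absorbance at 450 nm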
Report field: quantity (unit follows the number).

Some solved entries appear below for comparison.
Asked: What does the data say about its OD450 at 10 nM? Entry: F1.115.8 (antibody, human IgG1, kappa, V domains shown, Human-murine chimeric antibody) VH: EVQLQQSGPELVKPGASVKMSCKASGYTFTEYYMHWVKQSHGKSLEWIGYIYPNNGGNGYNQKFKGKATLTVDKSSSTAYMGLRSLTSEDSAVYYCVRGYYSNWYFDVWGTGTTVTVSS VL: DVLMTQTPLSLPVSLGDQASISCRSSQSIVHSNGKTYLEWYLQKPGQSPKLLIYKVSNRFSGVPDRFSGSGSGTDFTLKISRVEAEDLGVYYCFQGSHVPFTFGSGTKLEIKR
Given back: 2.36 OD450

Asked: What does the data say about its OD450 at 10 nM? Entry: F1.83.6 (antibody, human IgG1, kappa, V domains shown, Human-murine chimeric antibody) VH: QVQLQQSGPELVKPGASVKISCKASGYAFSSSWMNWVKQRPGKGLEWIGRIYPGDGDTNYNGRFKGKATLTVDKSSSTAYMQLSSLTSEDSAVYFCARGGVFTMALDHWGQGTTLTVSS VL: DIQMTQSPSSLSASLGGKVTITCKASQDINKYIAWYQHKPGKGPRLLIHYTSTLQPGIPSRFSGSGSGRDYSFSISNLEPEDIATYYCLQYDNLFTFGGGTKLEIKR
Given back: 0.32 OD450

For the next question, use this binder.
Asked: What does the data say about its OD450 at 10 nM? Entry: F2.23.8 (antibody, human IgG1, kappa, V domains shown, Human-murine chimeric antibody) VH: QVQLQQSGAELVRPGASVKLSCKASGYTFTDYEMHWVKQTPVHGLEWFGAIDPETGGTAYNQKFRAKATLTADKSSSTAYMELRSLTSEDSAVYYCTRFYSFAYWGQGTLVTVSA VL: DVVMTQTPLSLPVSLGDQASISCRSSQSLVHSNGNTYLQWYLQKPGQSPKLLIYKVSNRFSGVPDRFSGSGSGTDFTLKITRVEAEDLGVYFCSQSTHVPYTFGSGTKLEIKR
Given back: 2.24 OD450
